- subjectOfTest: Muscarinic acetylcholine receptor M2 (Homo sapiens) (UniProt P08172)
- Sequence (P08172 whole entry): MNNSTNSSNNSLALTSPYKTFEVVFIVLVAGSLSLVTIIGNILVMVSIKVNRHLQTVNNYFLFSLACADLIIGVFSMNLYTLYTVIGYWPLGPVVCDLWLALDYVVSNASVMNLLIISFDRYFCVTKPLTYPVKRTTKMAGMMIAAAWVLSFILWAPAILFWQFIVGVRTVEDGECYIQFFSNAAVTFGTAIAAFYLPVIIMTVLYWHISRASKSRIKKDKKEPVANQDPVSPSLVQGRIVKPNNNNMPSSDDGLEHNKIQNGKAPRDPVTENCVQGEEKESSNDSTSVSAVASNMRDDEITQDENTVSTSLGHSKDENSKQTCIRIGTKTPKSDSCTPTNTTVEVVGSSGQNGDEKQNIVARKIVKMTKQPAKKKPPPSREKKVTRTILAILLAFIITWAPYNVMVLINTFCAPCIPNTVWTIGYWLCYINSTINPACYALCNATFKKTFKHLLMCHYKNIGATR
- assayOverview: Ability to displace [3H]N-methylscopolamine binding to M2 human recombinant muscarinic receptor in CHO cells at concentration 10 uM
- Format: cell-based
propertyLabel: inhibition (%)
Give bare numbers, in %.

Here are 3 compounds together with their reported answers.
CC(C)(C)OC(=O)Nc1ccc(-c2cc(/C=C3\CN4CCC3CC4)on2)cc1 | 36
COc1ccc(-c2cc(/C=C3\CN4CCC3CC4)on2)cc1 | 19
Oc1ccc(-c2cc(/C=C3\CN4CCC3C4)on2)cc1 (stereo unspecified) | 10

Please give inhibition, item by item, for the list that follows.
1. Fc1ccc(-c2cc(/C=C3\CN4CCC3CC4)on2)cc1
2. Oc1ccc(-c2cc(/C=C3/CN4CCC3CC4)on2)cc1O
3. Oc1ccc(-c2cc(/C=C3\CN4CCC3C4)on2)cc1O (stereo unspecified)

1. 22
2. 43
3. 0

###

- subjectOfTest: UniProt:P11229
- Sequence (P11229 whole entry): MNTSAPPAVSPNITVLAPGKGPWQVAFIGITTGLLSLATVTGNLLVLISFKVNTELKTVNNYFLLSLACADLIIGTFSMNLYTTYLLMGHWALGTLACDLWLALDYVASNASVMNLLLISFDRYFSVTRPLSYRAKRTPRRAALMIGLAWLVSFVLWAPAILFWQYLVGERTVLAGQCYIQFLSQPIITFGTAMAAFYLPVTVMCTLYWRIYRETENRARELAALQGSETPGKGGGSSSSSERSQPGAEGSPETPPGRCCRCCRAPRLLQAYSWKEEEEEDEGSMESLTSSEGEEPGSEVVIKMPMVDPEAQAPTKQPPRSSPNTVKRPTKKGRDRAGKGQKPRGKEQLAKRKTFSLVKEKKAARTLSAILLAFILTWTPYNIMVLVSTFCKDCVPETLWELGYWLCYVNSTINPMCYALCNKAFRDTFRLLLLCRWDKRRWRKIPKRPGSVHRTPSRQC
- assayOverview: Ability to displace [3H]N-methylscopolamine binding to M1 human recombinant muscarinic receptor in CHO cells at concentration 10 uM
- Format: cell-based
propertyLabel: inhibition
State the result as a value with its unit after it.

COc1ccc(COc2ccc(-c3cc(/C=C4/CN5CCC4C5)on3)cc2OCc2ccc(OC)cc2)cc1 (centres undefined) | 91%
Fc1ccc(-c2cc(/C=C3/CN4CCC3CC4)on2)cc1 | 6%
C(=C1/CN2CCC1CC2)/c1cc(-c2ccccc2)no1 | 13%
COc1ccc(-c2cc(/C=C3/CN4CCC3C4)on2)cc1 (centres undefined) | 45%
Oc1ccc(-c2cc(/C=C3\CN4CCC3CC4)on2)cc1 | 2%
N#Cc1ccc(-c2cc(/C=C3/CN4CCC3CC4)on2)cc1 | 61%

Each compound below has a recorded value; state its inhibition.
1. Cc1ccc(-c2cc(/C=C3/CN4CCC3CC4)on2)cc1
2. Oc1ccc(-c2cc(/C=C3\CN4CCC3CC4)on2)cc1O
3. COc1ccc(-c2cc(/C=C3\CN4CCC3CC4)on2)cc1
4. Oc1ccc(-c2cc(/C=C3\CN4CCC3C4)on2)cc1 (centres undefined)
5. COc1ccc(COc2ccc(-c3cc(/C=C4/CN5CCC4CC5)on3)cc2)cc1
6. COc1ccc(-c2cc(/C=C3/CN4CCC3CC4)on2)cc1
7. CC(C)(C)OC(=O)Nc1ccc(-c2cc(/C=C3/CN4CCC3C4)on2)cc1 (centres undefined)
8. Nc1ccc(-c2cc(/C=C3/CN4CCC3C4)on2)cc1 (centres undefined)

1: 7%; 2: 8%; 3: 21%; 4: 0%; 5: 93%; 6: 79%; 7: 58%; 8: 44%

Please supply inhibition for each of the following items, keeping them in order.
1. Oc1ccc(-c2cc(/C=C3\CN4CCC3C4)on2)cc1O (centres undefined)
2. Nc1ccc(-c2cc(/C=C3\CN4CCC3CC4)on2)cc1
3. COc1ccc(-c2cc(/C=C3/CN4CCC3CC4)on2)cc1OC
4. COc1ccc(COc2ccc(-c3cc(/C=C4\CN5CCC4C5)on3)cc2OCc2ccc(OC)cc2)cc1 (centres undefined)

["0%", "4%", "81%", "100%"]

###

- subjectOfTest: Muscarinic acetylcholine receptor M3 (Homo sapiens) (UniProt P20309)
- Sequence (P20309 whole entry, looked up): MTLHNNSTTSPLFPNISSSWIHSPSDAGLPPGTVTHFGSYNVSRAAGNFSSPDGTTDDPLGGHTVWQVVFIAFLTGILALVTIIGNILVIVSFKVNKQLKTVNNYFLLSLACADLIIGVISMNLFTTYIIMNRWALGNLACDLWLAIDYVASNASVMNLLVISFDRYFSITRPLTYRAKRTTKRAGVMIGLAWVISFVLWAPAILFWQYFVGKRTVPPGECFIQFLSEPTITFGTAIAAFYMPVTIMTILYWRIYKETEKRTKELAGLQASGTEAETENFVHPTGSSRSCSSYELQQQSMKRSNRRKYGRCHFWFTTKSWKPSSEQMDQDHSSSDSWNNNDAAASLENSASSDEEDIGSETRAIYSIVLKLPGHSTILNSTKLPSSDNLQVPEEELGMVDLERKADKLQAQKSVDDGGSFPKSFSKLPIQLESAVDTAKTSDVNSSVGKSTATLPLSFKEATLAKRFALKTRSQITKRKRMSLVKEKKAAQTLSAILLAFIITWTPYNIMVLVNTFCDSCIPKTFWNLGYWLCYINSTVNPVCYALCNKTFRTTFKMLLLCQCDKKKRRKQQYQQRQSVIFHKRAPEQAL
- assayOverview: Ability to displace [3H]N-methylscopolamine binding to M3 human recombinant muscarinic receptor in CHO cells at concentration 10 uM
- Type: cell-based
Could you please report measured inhibition for the items listed next?
In your response, the unit should come after the numeric value.

These solved cases illustrate the format of a correct answer.
COc1ccc(COc2ccc(-c3cc(/C=C4/CN5CCC4C5)on3)cc2OCc2ccc(OC)cc2)cc1 (stereo not given) | 82%
Oc1ccc(-c2cc(/C=C3\CN4CCC3C4)on2)cc1O (stereo not given) | 0%

Could you tell me inhibition for each of these compounds? They are listed below.
1. Oc1ccc(-c2cc(/C=C3/CN4CCC3C4)on2)cc1O (stereo not given)
2. Oc1ccc(-c2cc(/C=C3\CN4CCC3CC4)on2)cc1O

1. 0%
2. 0%
